We begin with a simple list: items and their reported pIC50.
- measured.on: Cathepsin D (Cat D) (Homo sapiens (Human), UniProt P07339)
- Sequence (P07339 65-412, species assumed): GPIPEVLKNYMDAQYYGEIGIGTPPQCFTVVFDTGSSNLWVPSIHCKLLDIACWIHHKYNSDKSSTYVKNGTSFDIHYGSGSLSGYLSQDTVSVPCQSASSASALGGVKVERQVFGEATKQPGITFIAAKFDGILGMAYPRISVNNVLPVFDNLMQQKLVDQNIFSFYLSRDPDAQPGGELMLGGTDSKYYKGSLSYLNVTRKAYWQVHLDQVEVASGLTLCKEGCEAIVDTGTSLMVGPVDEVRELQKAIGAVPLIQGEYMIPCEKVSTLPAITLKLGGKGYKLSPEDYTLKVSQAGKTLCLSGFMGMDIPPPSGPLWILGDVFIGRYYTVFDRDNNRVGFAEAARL
- protocol.description: In vitro enzymatic Cathepsin D (Cat D) FRET assay
- Assay type: biochemical
- stated.conditions: average IC50; read-out: CatD IC50
pIC50: −log10 of the molar value.

chemical.string | pIC50
N#Cc1ccc(C(=O)Nc2cnc(F)c([C@]3(CF)C[C@@H](C(F)(F)F)OC(N)=N3)c2)nc1 | 2.75
COc1ccc(C(=O)Nc2ccc(F)c([C@]3(CF)C[C@@H](C(F)(F)F)OC(N)=N3)c2)nc1 | < 3.40
NC1=N[C@](CF)(c2cc(NC(=O)c3ccc(Cl)cn3)ccc2F)C[C@@H](C(F)(F)F)O1 | < 3.40
N#Cc1cnc2c(Nc3ccc(F)c([C@]4(CF)C[C@@H](C(F)(F)F)OC(N)=N4)c3)nccc2c1 | < 3.88
C[C@@]1(c2nc(NC(=O)c3ncc(C(F)(F)F)cc3Cl)ccc2F)C[C@@H](C(F)(F)F)OC(N)=N1 | < 3.40
NC1=N[C@](CF)(c2cc(Oc3cc(Br)cc(Cl)n3)ccc2F)C[C@@H](C(F)(F)F)O1 | < 3.40
C[C@@]1(c2cc(Nc3ncnc4cc(C#N)cnc34)cnc2F)C[C@@H](C(F)(F)F)OC(N)=N1 | < 3.40
